This collection of values is drawn from PubChem BioAssay (EPA / NIEHS).

Test: BSK_3C_TissueFactor: BioMAP Diversity Plus: 3C Assay for Tissue Factor Biomarker Activity (AID 2282997)
Settings: BioMAP 3C HUVEC, tissue factor biomarker readout; actives raise or lower the signal
Active and inactive are the calls of the source. Rule for the calls: active = hit-call score of the fitted dose curve at least 0.9, where 1 is the maximum; inactive = score below 0.9.
Give your call using only these classes: active, inactive

[
  {
    "compound": "NS(=O)(=O)c1cc2c(cc1Cl)NCNS2(=O)=O",
    "assigned category": "inactive"
  }
]

(Q) Dear colleague, could you share the recorded outcome for CC(=O)C(C)=CC1C(C)=CCCC1(C)C (configuration not stated) when you have a moment?
(A) inactive

(Q) Dear colleague, could you share the recorded outcome for Clc1cc(Cl)c(Cl)cc1Cl when you have a moment?
(A) active

(Q) Dear colleague, could you share the recorded outcome for Cc1ccc(N(C)C)cc1 when you have a moment?
(A) inactive

(Q) Dear colleague, could you share the recorded outcome for CCOC(=O)C(C)(C)Oc1ccc(Cl)cc1 when you have a moment?
(A) inactive

(Q) Dear colleague, could you share the recorded outcome for CCCCCC(=O)O when you have a moment?
(A) inactive

(Q) Dear colleague, could you share the recorded outcome for C1CCC(SSC2CCCCC2)CC1 when you have a moment?
(A) active

(Q) Dear colleague, could you share the recorded outcome for CCc1c(C(=O)NN2CCCCC2)nn(-c2ccc(Cl)cc2Cl)c1-c1ccc(Br)cc1 when you have a moment?
(A) active

(Q) Dear colleague, could you share the recorded outcome for O=c1[nH]cc(F)c(=O)[nH]1 when you have a moment?
(A) inactive
